For LSD1 (Homo sapiens (Human)), measured IC50 is reported for the entries below.

>  <molecule>
CO[C@H]1CCN(c2ccc(-n3c(-c4ccc(C#N)c(F)c4)nc4c(N5CCC6(CCNC6)CC5)ccnc43)c(F)c2)C1 [Example 60]

>  <IC50>
100 nM

$$$$
>  <molecule>
N#Cc1ccc(-c2nc3c(N4CCC[C@@H](N)C4)ccnc3n2-c2ccc(C3CC3)cc2)cc1 [Example 5]

>  <IC50>
101 nM

$$$$
>  <molecule>
CO[C@H]1CCN(c2ccc(-n3c(-c4ccc(C#N)c(F)c4)nc4c(N5CCC6CCNC6C5)ccnc43)c(F)c2)C1 (some centres unmarked) [Example 61]

>  <IC50>
38 nM

$$$$
>  <molecule>
N#Cc1ccc(-c2nc3c(N4CC[C@@H](N)C4)ccnc3n2-c2ccc(C3CC3)cc2)cc1 [Example 2]

>  <IC50>
162 nM

$$$$
>  <molecule>
N#Cc1ccc(-c2nc3c(N4CCC[C@@H](N)C4)ccnc3n2-c2ccc(N3CCC(F)(F)C3)cc2F)cc1F [Example 26]

>  <IC50>
29 nM

$$$$
>  <molecule>
CO[C@@H]1CCN(c2ccc(-n3c(-c4ccc(C#N)c(F)c4)nc4c(N5CCC[C@@H](N)C5)ccnc43)c(F)c2)C1 [Example 24]

>  <IC50>
19 nM

$$$$
>  <molecule>
N#Cc1ccc(-c2nc3c(N4CCC[C@@H](N)C4)ccnc3n2-c2ccc(N3CC4COCC4C3)cc2F)cc1F (some centres unmarked) [Example 49]

>  <IC50>
30 nM

$$$$
>  <molecule>
CO[C@H]1CCN(c2ccc(-n3c(-c4ccc(C#N)c(F)c4)nc4c(N5CCC(N)C5)ccnc43)c(F)c2)C1 (some centres unmarked) [Example 64]

>  <IC50>
24 nM

$$$$
>  <molecule>
CO[C@H]1CCN(c2ccc(-n3c(-c4ccc(C#N)c(F)c4)nc4c(N5CCC[C@@H](N)C5)ccnc43)c(F)c2)C1 [Example 25]

>  <IC50>
38 nM

$$$$
>  <molecule>
CO[C@H]1CCN(c2ccc(-n3c(-c4ccc(C#N)c(F)c4)nc4c(N5CCCC[C@@H](N)C5)ccnc43)c(F)c2)C1 [Example 67]

>  <IC50>
30 nM

$$$$
>  <molecule>
COC1CCN(c2ccc(-n3c(-c4ccc(C#N)c(F)c4)nc4c(N5CCC[C@@H](N)C5)ccnc43)c(F)c2)C1 (some centres unmarked) [Example 23]

>  <IC50>
17 nM

$$$$
>  <molecule>
N#Cc1ccc(-c2nc3c(N4CCC(N)CC4)ccnc3n2-c2ccc(C3CC3)cc2)cc1 [Example 3]

>  <IC50>
53 nM

$$$$
>  <molecule>
Cc1ccc(-n2c(-c3ccc(C#N)c(F)c3)nc3c(N4CCC[C@@H](N)C4)ccnc32)cc1 [Example 28]

>  <IC50>
40 nM

$$$$
>  <molecule>
N#Cc1ccc(-c2nc3c(N4CCC[C@@H](N)C4)ccnc3n2-c2ccc(N3CCCCC3)cc2F)cc1F [Example 10]

>  <IC50>
40 nM

$$$$

Data provenance: patent US12479845B2
